tested.on: mAChR M4 (Homo sapiens, UniProt P08173)
Construct: expressed in transfected cells; host or cells: CHO-K1 cells stably transfected with M4 cDNA and chimeric G-protein Gqi5
Sequence (P08173 whole entry): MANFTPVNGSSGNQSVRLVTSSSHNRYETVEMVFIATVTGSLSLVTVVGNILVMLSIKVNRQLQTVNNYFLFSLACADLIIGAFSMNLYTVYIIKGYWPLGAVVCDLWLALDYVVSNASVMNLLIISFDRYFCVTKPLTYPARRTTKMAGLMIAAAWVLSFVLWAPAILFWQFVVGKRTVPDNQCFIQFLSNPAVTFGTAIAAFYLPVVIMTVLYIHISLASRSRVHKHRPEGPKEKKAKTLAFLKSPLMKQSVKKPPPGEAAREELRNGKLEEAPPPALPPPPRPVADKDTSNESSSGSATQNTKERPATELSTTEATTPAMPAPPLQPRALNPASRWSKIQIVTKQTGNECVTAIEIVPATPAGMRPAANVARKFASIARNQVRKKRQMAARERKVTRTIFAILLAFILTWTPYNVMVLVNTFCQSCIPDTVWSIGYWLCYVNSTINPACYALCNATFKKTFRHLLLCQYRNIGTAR
test.description: mAChR M4 cell-based functional assay (calcium mobilization, potentiation of EC20 acetylcholine response)
run.parameters: % ACh maximum at 30 μM
# Emax at 30 µM per entry
value.type: Emax at 30 µM

| compound | value.type | readout.value |
| --- | --- | --- |
| Cc1nnc2sc(C(=O)NCc3ccc(CN4CCCCC4)cc3)c(N)c2c1C [Example B504] | Emax at 30 µM | 68% |
| Cc1nnc2sc(C(=O)N3CC[C@H](F)C3)c(N)c2c1C [Example B69] | Emax at 30 µM | 48% |
| Cc1nnc2sc(C(=O)NCc3ccc(-c4cc(C)c5[nH]ncc5c4)cc3)c(N)c2c1C [Example B474] | Emax at 30 µM | 82% |
| COc1ccc(C2(NC(=O)c3sc4nnc(C)c(C)c4c3N)CC2)cc1 [Example B301] | Emax at 30 µM | 48% |
| Cc1nnc2sc(C(=O)NCc3ccc(OC(F)F)cc3)c(N)c2c1C [Example B168] | Emax at 30 µM | 76% |
| CCCCCC(=O)N1CC(NC(=O)c2sc3nnc(C)c(C)c3c2N)C1 [Example B152] | Emax at 30 µM | 85% |
| Cc1nnc2sc(C(=O)NC3CN(S(=O)(=O)c4cccc5c4OCCC5)C3)c(N)c2c1C [Example B143] | Emax at 30 µM | 90% |
| Cc1nnc2sc(C(=O)N3CC4CN(C(=O)CC5CCCCC5)CC4C3)c(N)c2c1C (stereo not shown) [Example B386] | Emax at 30 µM | 44% |
| Cc1nnc2sc(C(=O)NCc3cccc(F)c3)c(N)c2c1C [Example B7] | Emax at 30 µM | 97% |
| Cc1cc(F)ncc1-c1ccc(CNC(=O)c2sc3nnc(C)c(C)c3c2N)cc1 [Example B498] | Emax at 30 µM | 82% |
| Cc1nnc2sc(C(=O)N3CC(F)(c4ccc(-c5cnn(C)c5)cc4)C3)c(N)c2c1C [Example B319] | Emax at 30 µM | 51% |
| Cc1nnc2sc(C(=O)NCc3ccc(S(C)(=O)=O)nc3)c(N)c2c1C [Example B330] | Emax at 30 µM | 68% |
| Cc1cccc(OC(=O)N2CC(NC(=O)c3sc4nnc(C)c(C)c4c3N)C2)c1 [Example B365] | Emax at 30 µM | 58% |
| Nc1c(C(=O)NCc2ccc(S(=O)(=O)C(F)(F)F)cc2)sc2nnc3c(c12)CCCC3 [Example B189] | Emax at 30 µM | 42% |
| Cc1nnc2sc(C(=O)NC3CN(C(=O)c4ccc(OC(F)(F)F)cc4)C3)c(N)c2c1C [Example B409] | Emax at 30 µM | 65% |
| COc1ncc(CNC(=O)c2sc3nnc(C)c(C)c3c2N)cc1F [Example B439] | Emax at 30 µM | 78% |
| Cc1nnc2sc(C(=O)NC3CCN(C(=O)c4c(F)cccc4F)C3)c(N)c2c1C (stereo not shown) [Example B243] | Emax at 30 µM | 78% |
| Cc1nnc2sc(C(=O)NCc3ccc4c(cnn4C)c3)c(N)c2c1C [Example B251] | Emax at 30 µM | 79% |
| COCCOc1ccc(CNC(=O)c2sc3nnc(C)c(C)c3c2N)cc1 [Example B233] | Emax at 30 µM | 78% |
| Cc1nnc2sc(C(=O)N3CC4CN(c5ccccn5)CC4C3)c(N)c2c1C (stereo not shown) [Example B287] | Emax at 30 µM | 58% |
| Cc1nnc2sc(C(=O)NC3CCN(c4ccccc4)C3)c(N)c2c1C (stereo not shown) [Example B113] | Emax at 30 µM | 66% |
| CCOC(=O)N1CC2CN(C(=O)c3sc4nnc(C)c(C)c4c3N)CC2C1 (stereo not shown) [Example B285] | Emax at 30 µM | 73% |
| Cc1nnc2sc(C(=O)N3CC4CN(C(=O)C5CCC5)CC4C3)c(N)c2c1C (stereo not shown) [Example B385] | Emax at 30 µM | 55% |
| COc1ccc(CNC(=O)c2sc3nnc(C)c(C)c3c2N)cc1 [Example B16] | Emax at 30 µM | 99% |
| COc1ccc(C2(OC)CN(C(=O)c3sc4nnc(C)c(C)c4c3N)C2)cc1 [Example B290] | Emax at 30 µM | 45% |
| Cc1nnc2sc(C(=O)NC3CN(C(=O)Nc4ccccc4F)C3)c(N)c2c1C [Example B338] | Emax at 30 µM | 62% |
| Cc1nnc2sc(C(=O)NC3CN(C(=O)CCc4ccccc4)C3)c(N)c2c1C [Example B129] | Emax at 30 µM | 80% |
| Cc1nnc2sc(C(=O)NC3CCN(c4ccccc4C(F)(F)F)C3)c(N)c2c1C (stereo not shown) [Example B284] | Emax at 30 µM | 71% |
| Cc1nnc2sc(C(=O)N[C@@H]3C[C@H]3c3ccc(S(C)(=O)=O)cc3)c(N)c2c1C (single isomer, unassigned) [Example B111] | Emax at 30 µM | 60% |
| Cc1nnc2sc(C(=O)NC3CN(C(=O)Oc4ccc(N=[N+]=[N-])cc4)C3)c(N)c2c1C [Example B421] | Emax at 30 µM | 84% |
| Cc1nnc2sc(C(=O)NCc3ccc(S(=O)(=O)C(C)(C)C(F)(F)F)cc3)c(N)c2c1C [Example B108] | Emax at 30 µM | 61% |
| Cc1nnc2sc(C(=O)N3CC(NC(=O)C4CCCCC4)C3)c(N)c2c1C [Example B185] | Emax at 30 µM | 54% |
| CCCCC(=O)N1CC2CN(C(=O)c3sc4nnc(C)c(C)c4c3N)CC2C1 (stereo not shown) [Example B389] | Emax at 30 µM | 47% |
| COc1ccc(CNC2CN(C(=O)c3sc4nnc(C)c(C)c4c3N)C2)cc1 [Example B61] | Emax at 30 µM | 55% |
